# Assay system: SEP3Δtet (SEP3 splice variant);AG (AGAMOUS) (Arabidopsis thaliana;Arabidopsis …, UniProt F4I972;P17839 1-237;1-252, del161-174|)
# Sequence (P17839 other isoform, or with tags, fused parts or gaps del161-174| | mutant, chain 1 of 2): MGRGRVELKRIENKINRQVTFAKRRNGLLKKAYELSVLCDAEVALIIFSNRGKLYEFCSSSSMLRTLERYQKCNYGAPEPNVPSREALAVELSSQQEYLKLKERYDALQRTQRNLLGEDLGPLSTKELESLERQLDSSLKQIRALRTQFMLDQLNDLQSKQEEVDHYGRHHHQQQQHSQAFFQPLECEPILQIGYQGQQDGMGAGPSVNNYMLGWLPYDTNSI
# Sequence (P17839 whole entry, stated change not applied, chain 2 of 2, canonical isoform): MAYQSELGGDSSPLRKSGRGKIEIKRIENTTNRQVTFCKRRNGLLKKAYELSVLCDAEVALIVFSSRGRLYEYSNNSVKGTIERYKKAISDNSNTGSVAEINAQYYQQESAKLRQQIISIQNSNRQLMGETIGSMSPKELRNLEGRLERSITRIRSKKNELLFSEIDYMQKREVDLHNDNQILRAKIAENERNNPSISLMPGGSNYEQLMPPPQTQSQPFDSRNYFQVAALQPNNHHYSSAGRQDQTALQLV
# Protocol: EMSA; dimer; EMSA as in the authors' ref. 20 (buffer, salt, pH, temperature not given); Cy5 probes; unpurified wheat germ TnT proteins
# Assay context: protein: ivt;ivt; tags: C-terminal 3xFLAG;C-terminal 5xMyc; copies: 1;1; label: Cy5; blunt
Test readout: binding result

Q: Requested read-out: binding result. Entry: KNU +10 (96 bp) (dsDNA) DNA 1: AAACATAGAAACCTTCCATGTTTGGCAATTTCATCTTGGAAGTCAGTAGCTCTTGATTCACTCTCTCTTGTCTTCTTTGTGCATCACAAGAACAAC DNA 2: GTTGTTCTTGTGATGCACAAAGAAGACAAGAGAGAGTGAATCAAGAGCTACTGACTTCCAAGATGAAATTGCCAAACATGGAAGGTTTCTATGTTT
Result: binds

Q: Query KNU -5 (96 bp) (dsDNA) DNA 1: AGAGGGTAAGAGAAACATAGAAACCTTCCATGTTTGGCAATTTCATCTTGGAACTTACTCTCTCTTGTCTTCTTTGTGCATCACAAGAACAACAAA DNA 2: TTTGTTGTTCTTGTGATGCACAAAGAAGACAAGAGAGAGTAAGTTCCAAGATGAAATTGCCAAACATGGAAGGTTTCTATGTTTCTCTTACCCTCT next
Result: binds

Q: Query KNU -10 (96 bp) (dsDNA) DNA 1: GAAAGAGGGTAAGAGAAACATAGAAACCTTCCATGTTTGGCAATTTCATCTTGGACTCTCTCTTGTCTTCTTTGTGCATCACAAGAACAACAAATA DNA 2: TATTTGTTGTTCTTGTGATGCACAAAGAAGACAAGAGAGAGTCCAAGATGAAATTGCCAAACATGGAAGGTTTCTATGTTTCTCTTACCCTCTTTC next
Result: binds
